Kindly supply the reported self-cleavage values for the records listed here.
B1: CPEB3 Ribozyme (parent)
chain: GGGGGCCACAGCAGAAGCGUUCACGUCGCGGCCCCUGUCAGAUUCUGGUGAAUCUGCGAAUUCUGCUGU

Variants of: B1
Test: self-cleavage, relative activity (ratio to wild type); higher = more cleavage; co-transcriptional
# respond with the number and nothing more

input: Param item = GGGGGCCACAGCAGAAGCGCUCAGGUCGCGGCCCCUGUCAGAUUCUGGUGAAUCUGCGAAUUCUGCUGU [U20C C24G] ; retrieve measured self-cleavage.
output: 0.146

input: Param item = GGGGGCCACAGCAGAAGCGUUCACGUCGCGGCCCCUGUCAGAUUCUGGUGAAUAUGCGACUUCUGCUGU [C54A A60C] ; retrieve measured self-cleavage.
output: 0.272

input: Param item = GGGGGCCACAGCAGAAGCGUUCACGUCGCGGCCCCAGUCUGAUUCUGGUGAAUCUGCGAAUUCUGCUGU [U36A A40U] ; retrieve measured self-cleavage.
output: 0.191

input: Param item = GGGGGCCACAGCAGAAGCGUUCACGUCGCGGCCCCUGUCAGAUGCUGGUGAAUCUGUGAAUUCUGCUGU [U44G C57U] ; retrieve measured self-cleavage.
output: 0.23

input: Param item = GGGGGCCACAGCAGAAGCGUUCACUUCGCGGCCCCUGACAGAUUCUGGUGAAUCUGCGAAUUCUGCUGU [G25U U38A] ; retrieve measured self-cleavage.
output: 0.168

input: Param item = GGGGGCUACAGCAGAAGCGUUCACGUCGCGGCCCCUGUCAGAGUCUGGUGAAUCUGCGAAUUCUGCUGU [C7U U43G] ; retrieve measured self-cleavage.
output: 0.757

input: Param item = GUGGGCCACAGCAGAAGCGUUCACGUCGCGGCCCCUGACAGAUUCUGGUGAAUCUGCGAAUUCUGCUGU [G2U U38A] ; retrieve measured self-cleavage.
output: 0.0631

input: Param item = GGGGGCCACACCUGAAGCGUUCACGUCGCGGCCCCUGUCAGAUUCUGGUGAAUCUGCGAAUUCUGCUGU [G11C A13U] ; retrieve measured self-cleavage.
output: 0.209

input: Param item = GGGGGCCACAGCAGAAGCGUUCACGUCGCGGCCCCUGUCAUAUUUUGGUGAAUCUGCGAAUUCUGCUGU [G41U C45U] ; retrieve measured self-cleavage.
output: 0.715

input: Param item = GGGGGUCACAGCAGAAGCGUUCACUUCGCGGCCCCUGUCAGAUUCUGGUGAAUCUGCGAAUUCUGCUGU [C6U G25U] ; retrieve measured self-cleavage.
output: 0.18

input: Param item = GGGGGCCACAGCAGAAGCGUUCACGUCGCGGCCCCUGUCAGAUUCUGGUGAUUCGGCGAAUUCUGCUGU [A52U U55G] ; retrieve measured self-cleavage.
output: 0.56

input: Param item = GGGGGCCACAGCAGAAGCGUUCACGUCGCGGCCGCUGUCAGAUUCUGGUGAAUCUGCGCAUUCUGCUGU [C34G A59C] ; retrieve measured self-cleavage.
output: 0.291

input: Param item = GGGGGCCACAGGAGAAUCGUUCACGUCGCGGCCCCUGUCAGAUUCUGGUGAAUCUGCGAAUUCUGCUGU [C12G G17U] ; retrieve measured self-cleavage.
output: 0.165

input: Param item = GGGGGCCACAGCAGAAGCGUUCACGUCGCGGACCCUGUCAGAUUCUGGUGAAUCUGCGAAUUCUCCUGU [C32A G65C] ; retrieve measured self-cleavage.
output: 0.459

input: Param item = GGGGGCCACAGCAGAAGCGUUCACGUCGCGGCCCCUGUCAGAUUCUGGUGAAUCUGCGAGUACUGCUGU [A60G U62A] ; retrieve measured self-cleavage.
output: 0.576

input: Param item = GGGGGCCACAGCAGAAGCGUUCACGACGCGGCCCCUGUCAGAUUCUGGUGAAUCUGAGAAUUCUGCUGU [U26A C57A] ; retrieve measured self-cleavage.
output: 0.355

input: Param item = GGGGGCCACAGCAGAAGCGUUCACGUCGCGGCCCCUGUCAGAGUCUGGUGAAUCUGCGAAGUCUGCUGU [U43G U61G] ; retrieve measured self-cleavage.
output: 0.265

input: Param item = GGGGACCACAGCAGAAGCGUUCACGUCGCGGCCCCUGUCAGAUUCAGGUGAAUCUGCGAAUUCUGCUGU [G5A U46A] ; retrieve measured self-cleavage.
output: 0.907

input: Param item = GGGGGCCACAGCAGAAGCGUUCACGUCGCGGCCCCUGUCAGAUUCUGGUGAAUCUGCGAAUUGUGCUCU [C63G G68C] ; retrieve measured self-cleavage.
output: 0.706

input: Param item = GGGGGCCACAGCAGAAGCGUUCACGUCGCGGCCCCUGUCAGAUUCUGGUGAAACUACGAAUUCUGCUGU [U53A G56A] ; retrieve measured self-cleavage.
output: 0.736

input: Param item = GGGGGCUACAGCAGAAGCGUUCACGUCGCGGCCCCUGUCAGAUUCUGGUGAGUCUGCGAAUUCUGCUGU [C7U A52G] ; retrieve measured self-cleavage.
output: 0.957

input: Param item = GGGGGCCACAGCAGAAGCGUUCACGUCGCGGCCCCUGUCAGAUUCUGGUGACUCUGCAAAUUCUGCUGU [A52C G58A] ; retrieve measured self-cleavage.
output: 0.887
